Here, each record is paired with measured MIC data.
Test system: Mycobacterium tuberculosis
assayInfo: Antitubercular activity against Mycobacterium tuberculosis H37Rv after 9 days by resazurin reduction assay
Type: functional
assayConditions: 216 h

These solved cases illustrate the format of a correct answer.
CCCC1=C(OC2(CCC)C(=O)c3ccccc3-c3nc4ccccc4nc32)C(=O)c2ccccc2C1=O (stereo unspecified) : > 199 µM
CC(C)CCC1=C(O)C(=O)c2ccccc2C1=O : 205 µM
CC(C)CCC1=C(OC2(CCC(C)C)C(=O)c3ccccc3-c3nc4ccccc4nc32)C(=O)c2ccccc2C1=O (stereo unspecified) : > 179 µM
CC(C)CC1=C(OC2(CC(C)C)C(=O)c3ccccc3-c3nc4ccccc4nc32)C(=O)c2ccccc2C1=O (stereo unspecified) : > 188 µM

[Q] // Input: CC(C)=CCC1=C(OC2(CC=C(C)C)C(=O)c3ccccc3-c3nc4ccccc4nc32)C(=O)c2ccccc2C1=O (stereo unspecified) . Output its MIC only.
[A] > 180 µM

[Q] Specify reported MIC for the molecule shown: CCCC1=C(OC2(CCC)C(=O)C3=C(CCCC3)c3nc4ccccc4nc32)C(=O)C2=C(CCCC2)C1=O (stereo unspecified)
[A] > 196 µM
